Consider the following compounds; for each one, report its melting point.

**Q:** Would you mind telling me what melting point value was observed for `COC(=O)CNCCC(=O)Nc1cccc2c1C(=O)c1cccc(NC(=O)CCNCC(=O)OC)c1C2=O` ?
**A:** 150 to 151 °C

**Q:** Same for `O=C(CCl)Nc1ccc2c(c1)C(=O)c1ccc(NC(=O)CCl)cc1C2=O`
**A:** 323 to 324 °C

**Q:** Same for `COC(=O)CNCCC(=O)Nc1ccc(NC(=O)CCNCC(=O)OC)c2c1C(=O)c1ccccc1C2=O`
**A:** 155 to 156 °C

**Q:** Same for `O=C(CCl)Nc1cccc2c1C(=O)c1cccc(NC(=O)CCl)c1C2=O`
**A:** 349 to 350 °C
